Taken from paper PMC11012799.

test system: L929 cells; test: cells; assay type: cell-based, murine; settings: Mus musculus, L929, 24 h, read-out: IC50 (µM) L929
Known IC50 of a selection of compounds
Entry rule: numbers only, all in µM.

The following compounds have reported results that may help.
>>> print(df.to_string())
                                     smiles  readout_value
0  CC(C)[C@@H]1CN1c1ccccc1P(=O)(c1ccccc1)c1ccccc1           10.6
1  CC(C)[C@@H]1CN1c1ccccc1P(c1ccccc1)c1ccccc1           68.1
2  c1ccc([C@H]2CN2c2ccccc2P(c2ccccc2)c2ccccc2)cc1             22

[Q] Query: IC50; subject: `O=P(c1ccccc1)(c1ccccc1)c1ccccc1N1C[C@@H]1c1ccccc1`
[A] 17

[Q] Query: IC50; subject: `CC(C)C[C@H]1CN1c1ccccc1P(=O)(c1ccccc1)c1ccccc1`
[A] 17.5

[Q] Query: IC50; subject: `CC(C)[C@H]1CN1c1ccccc1P(=O)(c1ccccc1)c1ccccc1`
[A] 13.7
